# Assay target: Rap guanine nucleotide exchange factor 3 (Homo sapiens) (UniProt O95398)
# Test: Counterscreen qHTS for agonist of cAMP-regulated guanine nucleotide exchange factor 3 (EPAC1) (AID 1645889); further: % of control where 0% means no effect; nearly all actives have a fitted effect of over 40% in size
# Condition set: EPAC1 Rap1B-BODIPY-GDP exchange, fluorescence; series mostly up to 154 µM
Results filed as inconclusive are left out. Active and inactive are the calls of the source. The call rests on the fitted dose curve; in most records, active means well fitted activation curve with a large enough effect; inconclusive means small, poorly fitted or top-dose-only effect, or another doubt; inactive means no such curve, though single readings can be large or run the other way.
Observation type: activation

[
  {
    "Compound": "COc1ccc(N2CCN(C(=O)c3cc(C)on3)CC2)cc1",
    "Observation type": "activation",
    "Result": "inactive"
  },
  {
    "Compound": "COc1ccc(OC)c([C@@H]2OCCC=C[C@H]2C)c1",
    "Observation type": "activation",
    "Result": "inactive"
  },
  {
    "Compound": "O=C(NCCOc1ccccc1-c1ccccc1)c1ccco1",
    "Observation type": "activation",
    "Result": "12.2% [at 30.8 µM] (inactive)"
  },
  {
    "Compound": "N#CC1=C(O)C(c2ccccc2)n2c1nc(=O)c1ccccc12 (stereo unspecified)",
    "Observation type": "activation",
    "Result": "1.1% [at 30.8 µM] (inactive)"
  },
  {
    "Compound": "CC(=O)Nc1ccc(Nc2nc3ccccc3nc2NS(=O)(=O)c2ccc(Cl)c([N+](=O)[O-])c2)cc1",
    "Observation type": "activation",
    "Result": "21.8% [at 30.8 µM] (inactive)"
  },
  {
    "Compound": "Cc1nn(-c2ccccc2)c(Cl)c1/C=C1\\SC(=S)NC1=O",
    "Observation type": "activation",
    "Result": "inactive"
  },
  {
    "Compound": "O=C1NN(c2cccc(Br)c2)C(=O)/C1=C\\c1ccccc1",
    "Observation type": "activation",
    "Result": "inactive"
  },
  {
    "Compound": "CCOC(=O)C1CCCN(c2c(NCCN3CCCCC3C)c(=O)c2=O)C1 (stereo unspecified)",
    "Observation type": "activation",
    "Result": "inactive"
  },
  {
    "Compound": "CC1(C)CC(=O)c2sc(N3CCCCC3)nc2C1",
    "Observation type": "activation",
    "Result": "inactive"
  },
  {
    "Compound": "CC(C)(C)c1cc(-c2csc(Nc3ccccc3)[n+]2Cc2ccc(C(=O)O)cc2)cc(C(C)(C)C)c1O",
    "Observation type": "activation",
    "Result": "inactive"
  },
  {
    "Compound": "Cc1ccc(N(Cc2cccs2)C(=O)c2ccccc2[N+](=O)[O-])cc1",
    "Observation type": "activation",
    "Result": "inactive"
  }
]

Data credit: PubChem BioAssay (NCATS)
